Entry source: patent US10004740B2

// each record: one item and its pIC50 for HIV-1 RT wild-type enzyme (Human immunodeficiency virus type 1 group M subtype B)
Expect pIC50 as a plain number equal to -log10 of the molar concentration.

stdin: Item under review: N#Cc1cc(Cl)cc(Oc2c(C(F)(F)F)ncn(Cc3cc(C(F)F)n[nH]c3=O)c2=O)c1 . Reported pIC50?
stdout: 8.49

stdin: Another: CC(F)(F)c1cc(Cn2cnc(C(C)(F)F)c(Oc3cc(Cl)cc(C#N)c3)c2=O)c(=O)[nH]n1
stdout: 8.33

stdin: Another: CC(F)(F)c1cc(Cn2cnc(C(F)(F)F)c(Oc3cc(Cl)cc(C#N)c3)c2=O)c(=O)[nH]n1
stdout: 8.34

stdin: Another: N#Cc1cc(Cl)cc(Oc2c(C(F)(F)F)ncn(Cc3cc(Cl)n[nH]c3=O)c2=O)c1
stdout: 8.57

----------
- protocol description: Pharmacokinetic studies in rats, oral gavage, plasma LC-MS/MS
- Assay type: in vivo
- condition label: male, Wistar-Hannover; rat, 5 mg/kg PO, 40% PEG400/10% Tween-80/50% water; plasma concentration of Parent after dosing the Parent compound
- Description: All animal studies were carried out under Good Laboratory Practice regulations for nonclinical laboratory studies. […] The quantitative analysis of the compounds was performed using a liquid chromatography and tandem mass spectrometry method (LC-MS/MS). […] The compounds were detected using selected reaction monitoring (SRM) methods by an AB Sciex API5000 mass spectrometer in the positive or negative ionization mode. […]
observable: AUC(0-inf) (µM·h)
Give just the numeric value; µM·h need not be written.

Solved entries (count: 2):
stdin: Item under review: N#Cc1cc(Cl)cc(Oc2c(C(F)F)ncn(Cc3cc(Cl)n[nH]c3=O)c2=O)c1 [Parent of Ex. 2] . Reported AUC(0-inf)?
stdout: 15.3

stdin: Another: N#Cc1cc(Cl)cc(Oc2c(C(F)(F)F)ncn(Cc3cc(Cl)n[nH]c3=O)c2=O)c1 [Parent of Ex. 3]
stdout: 10.2

---
stdin: Item under review: CC(F)(F)c1cc(Cn2cnc(C(F)(F)F)c(Oc3cc(Cl)cc(C#N)c3)c2=O)c(=O)[nH]n1 [Parent of Ex. 5] . Reported AUC(0-inf)?
stdout: 29.1

stdin: Another: N#Cc1cc(Cl)cc(Oc2c(C(F)(F)F)ncn(Cc3cc(C(F)(F)F)c(=O)[nH]n3)c2=O)c1 [Parent of Ex. 6]
stdout: 2

stdin: Another: N#Cc1cc(Cl)cc(Oc2c(C(F)(F)F)ncn(Cc3cc(C(F)F)n[nH]c3=O)c2=O)c1 [Parent of Ex. 4]
stdout: 21

stdin: Another: CC(F)(F)c1cc(Cn2cnc(C(C)(F)F)c(Oc3cc(Cl)cc(C#N)c3)c2=O)c(=O)[nH]n1 [Parent of Ex. 8]
stdout: 13.9

stdin: Another: N#Cc1cc(Cl)cc(Oc2c(C(F)(F)F)ncn(Cc3cc(-c4ccc(F)cc4)c(=O)[nH]n3)c2=O)c1 [Parent of Ex. 7]
stdout: 8.2
